These measurements were taken from the supplement of paper PMC4206461.

system: Pseudomonas aeruginosa PA14 dppA1-A5 penta mutant + pBBR5.DppA1 (PA14_58350); assay: respiration area under curve with compound as sole nitrogen source, 24 h (OmniLog AUC (arbitrary units)); higher = more respiration / better utilisation as nitrogen source, active = 2000 or more
# label = bin(measured respiration area under curve), where bins are bin 1: < 2000; bin 2: ≥ 2000 and < 6000; bin 3: ≥ 6000

Input line: Which class does CSCC[C@H](NC(=O)[C@@H](N)CO)C(=O)O (plate: PM7) fall in?
Output line: bin 2

Input line: Now consider CC(C)CC(N)C(=O)NC(CC(=O)O)C(=O)O (configuration not stated) (plate: PM6) and answer again.
Output line: bin 2

Input line: Now consider C[C@@H](N)C(=O)NCC(=O)NCC(=O)O (plate: PM8) and answer again.
Output line: bin 1

Input line: Now consider N[C@@H](Cc1c[nH]c2ccccc12)C(=O)N[C@@H](Cc1c[nH]c2ccccc12)C(=O)O (plate: PM7) and answer again.
Output line: bin 1

Input line: Now consider O=C(O)CNC(=O)[C@@H]1CCCN1 (plate: PM7) and answer again.
Output line: bin 3

Input line: Now consider CC[C@H](C)[C@H](N)C(=O)N[C@@H](C)C(=O)O (plate: PM6) and answer again.
Output line: bin 2

Input line: Now consider NC(N)=NCCC[C@H](NC(=O)[C@@H]1CCCN1)C(=O)O (plate: PM8) and answer again.
Output line: bin 3

Input line: Now consider N[C@@H](CC(=O)O)C(=O)N[C@@H](Cc1ccccc1)C(=O)O (plate: PM6) and answer again.
Output line: bin 1

Input line: Now consider CC(C)C[C@H](N)C(=O)N[C@@H](CCCN=C(N)N)C(=O)O (plate: PM6) and answer again.
Output line: bin 3

Input line: Now consider CSCC[C@H](N)C(=O)N[C@@H](CCC(N)=O)C(=O)O (plate: PM7) and answer again.
Output line: bin 3

Input line: Now consider CC(C)[C@H](N)C(=O)N[C@@H](Cc1ccc(O)cc1)C(=O)N[C@H](C(=O)O)C(C)C (plate: PM8) and answer again.
Output line: bin 3

Input line: Now consider CC(C)C[C@@H](N)C(=O)N[C@H](CC(C)C)C(=O)O (plate: PM8) and answer again.
Output line: bin 1

Input line: Now consider CC(C)C[C@H](N)C(=O)N[C@@H](CO)C(=O)O (plate: PM7) and answer again.
Output line: bin 3

Input line: Now consider N[C@@H](Cc1c[nH]c2ccccc12)C(=O)N[C@@H](CCC(=O)O)C(=O)O (plate: PM7) and answer again.
Output line: bin 1

Input line: Now consider C[C@H](NC(=O)CN)C(=O)O (plate: PM6) and answer again.
Output line: bin 2

Input line: Now consider N[C@@H](CO)C(=O)N[C@@H](CC(=O)O)C(=O)O (plate: PM8) and answer again.
Output line: bin 2

Input line: Now consider NC(=O)CC[C@H](NC(=O)[C@@H]1CCCN1)C(=O)O (plate: PM7) and answer again.
Output line: bin 3

Input line: Now consider N[C@@H](CC(=O)O)C(=O)N[C@@H](Cc1c[nH]c2ccccc12)C(=O)O (plate: PM6) and answer again.
Output line: bin 1

Input line: Now consider C[C@@H](O)[C@H](N)C(=O)N[C@@H](CCC(=O)O)C(=O)O (plate: PM7) and answer again.
Output line: bin 2

Input line: Now consider CSCC[C@H](N)C(=O)NCC(=O)O (plate: PM7) and answer again.
Output line: bin 2

Input line: Now consider CC(C)C[C@H](NC(=O)CN)C(=O)O (plate: PM6) and answer again.
Output line: bin 1

Input line: Now consider CC(C)[C@H](NC(=O)[C@@H](N)CC(=O)O)C(=O)O (plate: PM6) and answer again.
Output line: bin 1

Input line: Now consider CC(C)[C@H](NC(=O)[C@@H](N)Cc1c[nH]c2ccccc12)C(=O)O (plate: PM8) and answer again.
Output line: bin 1

Input line: Now consider CC[C@H](C)[C@H](N)C(=O)N[C@@H](Cc1c[nH]c2ccccc12)C(=O)O (plate: PM6) and answer again.
Output line: bin 1

Input line: Now consider CSCC[C@H](NC(=O)[C@H](C)N)C(=O)O (plate: PM8) and answer again.
Output line: bin 3

Input line: Now consider O=C(O)[C@@H]1CCCN1C(=O)[C@@H]1CCCN1 (plate: PM7) and answer again.
Output line: bin 3

Input line: Now consider N[C@@H](CCC(=O)O)C(=O)N[C@@H](Cc1c[nH]c2ccccc12)C(=O)O (plate: PM6) and answer again.
Output line: bin 1

Input line: Now consider CC(C)C[C@H](NC(=O)[C@@H](N)CC(C)C)C(=O)O (plate: PM6) and answer again.
Output line: bin 1

Input line: Now consider CC[C@H](C)[C@H](N)C(=O)N[C@@H](CCCN=C(N)N)C(=O)O (plate: PM6) and answer again.
Output line: bin 3

Input line: Now consider N[C@@H](Cc1ccccc1)C(=O)N[C@@H](Cc1c[nH]c2ccccc12)C(=O)O (plate: PM7) and answer again.
Output line: bin 1

Input line: Now consider CC(C)[C@H](NC(=O)[C@@H](N)CC(N)=O)C(=O)O (plate: PM6) and answer again.
Output line: bin 2

Input line: Now consider CC[C@H](C)[C@H](NC(=O)[C@@H]1CCCN1)C(=O)O (plate: PM8) and answer again.
Output line: bin 2

Input line: Now consider C[C@@H](O)[C@H](N)C(=O)N[C@@H](CC(=O)O)C(=O)O (plate: PM8) and answer again.
Output line: bin 2

Input line: Now consider N[C@@H](CC(=O)O)C(=O)N[C@@H](CC(=O)O)C(=O)O (plate: PM6) and answer again.
Output line: bin 1

Input line: Now consider NC(N)=NCCC[C@H](NC(=O)[C@@H](N)CCCN=C(N)N)C(=O)O (plate: PM6) and answer again.
Output line: bin 3
